System: MDR1
PROTOCOL NOTES: Apparent permeability from apical to basolateral side of MDCK cells expressing MDR1
Format: ADME, cell-based, Canis lupus familiaris
CONDITION SUMMARY: dog
Would you please tag the item fulfilled when its Papp A→B is 4 ×10⁻⁶ cm/s or above, and not fulfilled when it is below?

Examples from the recorded data:
MOLECULE	LABEL CLASS
COCc1cc2cc(c1)C(=O)N[C@H]([C@H](O)CNC(c1cccc(C(C)(C)C)c1)C(F)(F)F)Cc1cccc(c1)OCCCCN2 (stereo not given in full)	fulfilled
COCc1cc2cc(c1)C(=O)N[C@H]([C@H](O)CNC(CF)c1cccc(C(C)(C)C)c1)Cc1cccc(c1)OCCCCN2 (stereo not given in full)	not fulfilled
COCc1cc2cc(c1)C(=O)N[C@H]([C@H](O)CNC(C)(C)c1cccc(C(C)C)c1)Cc1cccc(c1)OCCCCN2	not fulfilled
CC(C)c1cccc(C2(NC[C@@H](O)[C@@H]3Cc4cccc(c4)OCCCCOc4cc(cc(N5CCCC5=O)c4)C(=O)N3)CC2)c1	not fulfilled

Read the next record carefully.
Problem: Confirm if Papp A→B reported for the molecule CCCS(=O)(=O)N(C)c1cc2cc(c1)C(=O)N[C@H]([C@H](O)CNCc1cccc(C(C)C)c1)Cc1cccc(c1)OCCCCN2 is 4 ×10⁻⁶ cm/s or above.
Result: not fulfilled
